Molecular target: UniProtKB P37231
Sequence (P37231 29-505): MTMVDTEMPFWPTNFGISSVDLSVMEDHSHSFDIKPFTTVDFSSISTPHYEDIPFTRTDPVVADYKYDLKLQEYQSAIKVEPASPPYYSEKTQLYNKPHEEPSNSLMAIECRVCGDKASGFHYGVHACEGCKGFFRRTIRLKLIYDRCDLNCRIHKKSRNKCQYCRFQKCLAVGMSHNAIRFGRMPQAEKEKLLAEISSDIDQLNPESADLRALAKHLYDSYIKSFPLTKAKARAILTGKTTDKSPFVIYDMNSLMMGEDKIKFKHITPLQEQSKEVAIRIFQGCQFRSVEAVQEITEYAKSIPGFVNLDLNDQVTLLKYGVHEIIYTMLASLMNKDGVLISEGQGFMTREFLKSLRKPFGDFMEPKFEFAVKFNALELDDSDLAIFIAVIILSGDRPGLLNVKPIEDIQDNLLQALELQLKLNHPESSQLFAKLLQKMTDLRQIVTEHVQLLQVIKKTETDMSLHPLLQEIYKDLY
Assay: PPARγ luciferase reporter gene transactivation in transfected HEK-293 cells
Details: HEK-293, 18 h, fold induction above vehicle control (DMSO 0.1%)
Measured Parameter: PPARγ activation maximal fold activation
Respond with the figure and its unit, in that order.

Worked set:
[[record]]
compound = "C=C[C@@H](O)/C=C/C#C[C@@H](O)/C=C\\CCCCCCC [compound 4]"
target_under_test = "UniProtKB P37231"
measured_parameter = "PPARγ activation maximal fold activation"
observed_result = "2.29 fold"

[[record]]
compound = "C=C[C@@H](O)C#CC#C[C@@H](O)/C=C\\CCCCCCC [compound 2]"
target_under_test = "UniProtKB P37231"
measured_parameter = "PPARγ activation maximal fold activation"
observed_result = "3.26 fold"

[[record]]
compound = "C=C[C@@H](O)C#CC#C[C@@H](O)C1OC1CCCCCCC (stereo partly drawn) [compound 3]"
target_under_test = "UniProtKB P37231"
measured_parameter = "PPARγ activation maximal fold activation"
observed_result = "1.88 fold"

[[record]]
compound = "CCCCCCC/C=C\\CC#CC#C/C=C\\CO [compound 6, 2Z,9Z-heptadecadiene-4,6-diyne-1-ol]"
target_under_test = "UniProtKB P37231"
measured_parameter = "PPARγ activation maximal fold activation"
observed_result = "1.73 fold"

[[record]]
compound = "C=C[C@@H](O)C#CC#C[C@H](/C=C\\CCCCCCC)OC(C)=O [compound 1]"
target_under_test = "UniProtKB P37231"
measured_parameter = "PPARγ activation maximal fold activation"
observed_result = "2.36 fold"


Pending compound:
INPUT: Look up and state reported PPARγ activation maximal fold activation for CCCCCCC/C=C\CC#CC#CCCCO [compound 5, 9Z-heptadecene-4,6-diyne-1-ol]
OUTPUT: 1.92 fold

Where these numbers come from: paper PMC3632601
